- SYSTEM UNDER TEST: T1, RBD derived from SARS-CoV-2 (Wuhan strain) (SARS-CoV-2 (Wuhan strain), UniProt P0DTC2 319-541)
- T1 construct: domain: RBD
- TEST DETAILS: RBD beads, antibody 0.25 µg/mL, then labelled ACE2, flow cytometry
OBSERVED PROPERTY: fluorescence of ACE2 protein
Please respond with just the number, no unit label.

Q: For the binder Ab445 (antibody, V domains shown) VH: EVQLVESGGGVVQPGTSPRLSCAASGFTFSNSGMHWVRQAPGKGLEWVAVIWYDGSKKYYVDSVKGRFTISRDNSKNTLYLQMNSLRAEDTAVYYCARDGTVAVRGVMNPFFDYWGQGTLVTVSS VL: DIQLTQSPSSLSASVGDRVTITCQASQDISNYLNWYQQIPGKAPKLLIYDASNLETGVPSRFSGSGSGTDFTFTISSLQPEDIATYYCQQYDNLPYTFGQGTKLEIK , what fluorescence of ACE2 protein is on record?
A: 2200
